Reference source for all entries: paper PMC6600592

Assay: Cytotoxicity in HepG 2.2.15 cells (MTT assay, nine days)
Format: cell-based, human
Settings: human, after nine days, read-out: CC50 (50% cytotoxicity concentration)
Quantity measured: CC50 at 9 days
Remember to quote the unit after the number.

Hi! Can you tell me CC50 at 9 days for each of these molecules?
1. O=C(CC/C(=N\O)c1ccccc1)OC1CCCCC1
2. Cc1ccc(/C(CCC(=O)OC2CCCCC2)=N/O)cc1

528 µM
444 µM

###

Assay: Cytotoxicity in HepG 2.2.15 cells (MTT assay, nine days)
Type: cell-based, human
Conditions: human, after nine days, read-out: CC50 (50% cytotoxicity concentration)
Categorized via CC50 at 9 days: bucket A: < 600 µM; bucket B: ≥ 600 µM and < 700 µM; bucket C: ≥ 700 µM

Example entries and their recorded answers appear below.
> print(dat)
                               molecule  class.name
1     CO/N=C(\CCC(=O)OC1CCCCC1)c1ccccc1    bucket B
2  COc1ccc(/C(CCC(=O)OC2CCCCC2)=N/O)cc1    bucket A

Hi, small favor: classify "Cc1ccc(/C(CCC(=O)OC2CCCCC2)=N/OCc2ccccc2)cc1" by its CC50 at 9 days when you get a moment.
bucket C

Do the same for "CO/N=C(\CCC(=O)OC1CCCCC1)c1ccc(Cl)cc1" please
bucket A

Do the same for "O=C(CC/C(=N\OCc1ccccc1)c1ccccc1)OC1CCCCC1" please
bucket C

Do the same for "CO/N=C(\CCC(=O)OC1CCCCC1)c1ccc(OC)cc1" please
bucket B

Do the same for Nc1ccn([C@@H]2CS[C@H](CO)O2)c(=O)n1 [Compound 3TC, Lamivudine, reference compound] please
bucket A

Do the same for "COc1ccc(/C(CCC(=O)OC2CCCCC2)=N/OCc2ccccc2)cc1" please
bucket B
